Tested on: HCT-116
ASSAY REMARKS: MTT anti-proliferative assay, HCT-116
Type: cell-based, human
TEST PARAMETERS: MTT; mean ± SD of three experiments; read-out: IC50 HCT-116
Entries and their IC50

| COMPOUND | IC50 (µM) |
| --- | --- |
| COc1ccc2nc(Cl)c(C3CC(c4cc(OC)c(OC)c(OC)c4)=NN3C(N)=S)cc2c1 (stereo not shown) | 8.87 |
| COc1ccc2nc(Cl)c(C3CC(c4cc(OC)c(OC)c(OC)c4)=NN3)cc2c1 (stereo not shown) | 17.4 |
| COc1ccc2nc(Cl)c(C3CC(c4cc(OC)c(OC)c(OC)c4)=NO3)cc2c1 (stereo not shown) | 9.96 |
| COc1ccc2nc(Cl)c(C3CC(c4ccc(N)cc4)=NN3)cc2c1 (stereo not shown) | 17.4 |
